pIC50: −log10 of the molar value.
# pIC50 against Coagulation factor X (Homo sapiens, UniProt P00742), merged from multiple literature sources
REPORTED ENDPOINT: pIC50

Answered examples (5):
# COMPOUND, pIC50
rows = [
    ("COc1ccc2c(c1)C(=O)N(c1ccc(N3CCCCC3=O)cc1)CN2C(=O)Cc1ccc(Cl)cc1", 6.90),
    ("Cc1cc2cc(N=C(NC#N)NC3CCCCCN(CC(=O)N4CCCC4)C3=O)ccc2o1 (racemic)", 6.71),
    ("CN(Cc1ccc(C(=O)Nc2ccc(Cl)cc2C(=O)Nc2ccc(Cl)cn2)cc1)C1=NCCN1", 8.70),
    ("CC(C)c1cc(-c2ccc3c(c2)[C@H](N)CO3)cc(C(O)CN2CCc3cccc(C(=O)O)c32)c1 (mixture of isomers)", 5.77),
    ("CN(C)C(=N)c1cccc(-c2ccc(C(=O)Nc3ccc(Cl)cc3C(=O)Nc3ccc(Cl)cn3)cc2)c1", 8.70),
]

P. O=C(CCS(=O)(=O)c1ccc2cc(Cl)ccc2c1)N1CCC(n2ccnc2)CC1
Q. CC(C)N1CCc2nc(C(=O)N3CCN(S(=O)(=O)c4ccc5cc(Cl)ccc5c4)CC3C(N)=O)sc2C1 (stereo not drawn)
Query: Between the entries labeled P and Q , whose measured pIC50 is lower? Please indicate the selected item by its label.
Result: P

* * *

# IC50 against Coagulation factor X (Homo sapiens), merged from multiple literature sources
REPORTED ENDPOINT: IC50 (nM)

Answered examples (4):
# COMPOUND, UNIT STRING, IC50
measured = [
    ("O=C(c1ccc(-n2ccnc2)cc1)N1CC[C@H](CNS(=O)(=O)/C=C/c2ccc(Cl)s2)C1", "nM", 1300),
    ("Cc1ncc2n1C(=O)N(C1CCN(C(=O)C(=O)CS(=O)(=O)c3ccc4cc(Cl)ccc4c3)CC1)C2", "nM", 930),
    ("CS(=O)(=O)N(Cc1ccc2ccc(C(=N)N)cc2c1)C1CCN(S(=O)(=O)c2cccc(F)c2)CC1", "nM", 800),
    ("O=C(c1ccc(C2=NCCCN2)cc1)N1CCN(S(=O)(=O)c2ccc3cc(Br)ccc3c2)CC1", "nM", 1300),
]

P. CC(C)CNC(=O)c1ccc(-c2ccc(-c3cscc3CN=[N+]=[N-])cc2C(=O)Nc2ccc(C(=N)N)cc2)c(C(=O)O)c1
Q. CC(=O)Nc1ccc(S(=O)(=O)N2CCN(CC(=O)NC(CCCNC(=N)N)C(=O)c3nccs3)C(=O)C2)cc1 (stereo not drawn)
R. CCOc1ccc(-c2ccc(C(=O)NC(/C=C/c3ccccc3)C(Cc3cccc(C(=N)N)c3)C(=O)OC)cc2)cc1 (stereo not drawn)
Query: Endpoint returns the given compounds ordered by ascending IC50. Put the labels in the requested order and write them down.
Result: P, Q, R

* * *

# IC50 against Coagulation factor X (Homo sapiens, UniProt P00742), merged from multiple literature sources

# SMILES STR, ASSAYED SYSTEM, REPORTED ENDPOINT, VALUE
data = [
    ("O=C(NCc1ccncc1)c1cc(NS(=O)(=O)Cc2ccccc2)ccc1Sc1ccccc1", "Coagulation factor X (Homo sapiens, UniProt P00742)", "IC50", "> 30 µM"),
]

Query: Using the record for Nc1cccc(-c2c(Cl)nc(NC3CCC3)c(=O)n2CC(=O)NCCc2cnc[nH]2)c1 , report its IC50.
Result: > 30 µM

Query: Using the record for COC(=O)CN1C(=O)[C@H](CCCCC(=N)N)[C@H]2c3ccccc3C[C@@H]21 , report its IC50.
Result: > 200 µM

Query: Using the record for Nc1n[nH]c(-c2ccccc2)n1 , report its IC50.
Result: > 5 µM

* * *

pIC50: −log10 of the molar value.
# pIC50 against Coagulation factor X (Homo sapiens), merged from multiple literature sources
REPORTED ENDPOINT: pIC50

Answered examples (2):
# COMPOUND, pIC50
records = [
    ("CCN(CC)c1ccc(Oc2nc(Oc3cccc(C(=N)N)c3)c(F)c(NC(C)CCc3ccccc3)c2F)c(C(=O)O)c1 (centres undefined)", 5.02),
    ("N=C(N)N1CCc2ccc(OCC3CCN(Cc4ccccc4N)CC3)cc2C1", 5.49),
]

I. COc1ccc2c(c1)C(=O)N(c1ccc(N3CCCCC3=O)cc1)CN2C(=O)c1cccc(Cl)c1
II. Cc1nccc(N2CCC(C(=O)N3CC[C@H](CNS(=O)(=O)/C=C/c4ccc(Cl)s4)C3)CC2)n1
Query: Between the entries labeled I and II , whose measured pIC50 is lower? Please indicate the selected item by its label.
Result: I
(I: 3.61, II: 6.14)

1. COCCOc1cc(C(=N)N(C)C)ccc1C(=O)Nc1ccc(Cl)cc1C(=O)Nc1ccc(Cl)cn1
2. COc1ccc(-n2nc(C(N)=O)c3c2C(=O)N(c2ccc(C4=NCCCN4)cc2)CC3)cc1
3. N=C(c1ccc(CN2CCN(S(=O)(=O)c3cc4ccc(Cl)cc4s3)CC2=O)cc1)N1CCC1
Query: Endpoint returns the given compounds ordered by ascending pIC50. Put the labels in the requested order and write them down.
Result: 2, 3, 1

1. CC(C)[C@H](NC(=O)[C@H](Cc1ccc(O)cc1)NC(=O)N[C@H](C)c1ccc(Br)cc1)C(=O)N[C@@H](CCCN=C(N)N)C(=O)c1nccs1
2. CN(CC(=O)NC(C=O)CCCNC(=N)N)C(=O)[C@H](CCCNC(=N)N)NS(=O)(=O)Cc1ccccc1 (some centres undefined)
Query: Between the entries labeled 1 and 2 , whose measured pIC50 is lower? Please indicate the selected item by its label.
Result: 1
(1: 5.80, 2: 7.70)

* * *

pIC50: −log10 of the molar value.
# pIC50 against UniProt P00742, merged from multiple literature sources
REPORTED ENDPOINT: pIC50

A. COc1ccc2c(c1)C(=O)N(c1ccc(N3CCOCC3=O)cc1)CN2C(=O)Cc1ccc(Cl)s1
B. CCN1CCN(c2ccc3c(c2)OC[C@H]2[C@H](CNC(=O)c4ccc(Cl)s4)OC(=O)N32)C(=O)C1
C. CCOC[C@@H](NC(=O)c1ccc(Cl)s1)C(=O)Nc1ccc(N2CCOCC2=O)c(C)c1
Query: Highest pIC50 first, then in falling order down to the smallest. Put the labels in the requested order and write them down.
Result: C, A, B

* * *

# pIC50 against Coagulation factor X (Homo sapiens, UniProt P00742), merged from multiple literature sources
pIC50: −log10 of the molar value.
REPORTED ENDPOINT: pIC50

Answered examples (6):
# MOLECULE, pIC50
measured = [
    ("O=C(CCS(=O)(=O)c1ccc2cc(Cl)ccc2c1)N1CCN(c2ccn3ccnc3c2)CC1", 7.11),
    ("O=C(Nc1ccc(N2CCOCC2=O)cc1)[C@@H]1[C@@H]2CC[C@H](C2)N1C(=O)Cc1ccc(Cl)cc1", 5.00),
    ("COC(=O)[C@H](Cc1cccc(C(=N)N)c1)[C@@H](/C=C/c1ccccc1)NC(=O)c1ccccc1", 6.15),
    ("COc1ccc(Cl)cc1S(=O)(=O)N1CCC(N(Cc2ccc3ccc(C(=N)N)cc3c2)S(C)(=O)=O)CC1", 7.41),
    ("COc1ccc(NC(=O)c2ccc(N3CCCCC3=O)cc2)c(C(=O)Nc2ccc(F)cc2)c1", 5.97),
    ("N=C(N)NCCC[C@H](NC(=O)[C@H](CC1CC1)NC(=O)[C@@H](Cc1ccccc1)NS(=O)(=O)Cc1ccccc1)C(=O)c1nccs1", 5.67),
]

a. N=C(N)c1ccc2cc(CC(C(=O)O)c3ccc(O[C@H]4CCNC4)cc3)oc2c1 (stereo not given in full)
b. COc1ccc2c(c1)C(=O)N(c1ccc(N3CCOCC3=O)cc1)CN2C(=O)Cc1ccc(Cl)cn1
Query: Would you let me know which has the greater pIC50 value, a or b ? Please indicate the selected item by its label.
Result: b
(b: 6.80, a: 5.77)

* * *

pIC50: −log10 of the molar value.
# pIC50 against Coagulation factor X (Homo sapiens, UniProt P00742), merged from multiple literature sources
REPORTED ENDPOINT: pIC50

# COMPOUND, REPORTED ENDPOINT, VALUE
rows = [
    ("Cc1cc(C(=O)Nc2ccc(C3=NCCN3C)cc2F)n(-c2ccc3cc(Cl)ccc3c2)n1", "pIC50", 8.10),
    ("O=C(NC[C@@H]1OC(=O)N2c3ccc(N4CCOCC4=O)cc3OC[C@@H]12)C(=O)Nc1ccc(Cl)cc1", "pIC50", 6.51),
    ("CNc1ccccc1-c1ccc(C(=O)Nc2ccc(Cl)cc2C(=O)Nc2ccc(Cl)cn2)cc1", "pIC50", 8.39),
    ("CC(C)c1cc(CCOc2ccccc2C(=O)O)cc(-c2ccc3c(c2)[C@H](N)CO3)c1", "pIC50", 6.62),
]

P. O=C(NC[C@@H]1OC(=O)N2c3ccc(N4CCCCC4=O)cc3S(=O)(=O)C[C@@H]12)c1ccc(Cl)s1
Q. CCOc1ccc(Oc2nc(Oc3cccc(C(=N)N)c3)c(F)c(NC(C)CCc3ccccc3)c2F)c(C(=O)O)c1 (configuration not stated)
Query: Between the entries labeled P and Q , whose measured pIC50 is lower? Please indicate the selected item by its label.
Result: Q

1. C/C(=C(\F)C(=O)Nc1ccc(-c2ccccc2S(N)(=O)=O)cc1)c1cc(Cl)ccc1C#N
2. CN1CCc2sc(C(=O)N3CCN(S(=O)(=O)c4ccc5cc(Cl)ccc5c4)CC3)cc2C1
Query: Between the entries labeled 1 and 2 , whose measured pIC50 is lower? Please indicate the selected item by its label.
Result: 1
